This collection of values is drawn from patent US20250042994A1.

# Assay target: T1, Human CD19-his protein (human, UniProt P15391 20-291)
# T1 construct: bought protein; also called human CD19 protein; recombinant human CD19-His; not shown: His tag
# T1 sequence (looked up): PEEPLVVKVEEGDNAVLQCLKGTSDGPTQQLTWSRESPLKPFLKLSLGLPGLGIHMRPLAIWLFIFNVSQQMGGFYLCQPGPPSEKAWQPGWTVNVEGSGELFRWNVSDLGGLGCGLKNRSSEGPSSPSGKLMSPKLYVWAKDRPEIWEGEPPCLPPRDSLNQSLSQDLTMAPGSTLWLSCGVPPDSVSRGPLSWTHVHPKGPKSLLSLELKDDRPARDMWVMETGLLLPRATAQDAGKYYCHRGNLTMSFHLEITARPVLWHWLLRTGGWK
# Experimental protocol: ELISA, antibody at 0.001 nM
# Experimental: Human CD19-his protein (purchased from ACROBiosystems, catalog number: CD9-H52H2) was diluted with PBS to a final concentration of 4 μg/mL, and then added to a 96-well ELISA plate at 100 μl/well. […] The OD450 nm values were read by an ELISA microplate reader (Multimode Plate Reader, EnSight, purchased from Perkin Elmer).

[
  {
    "Binder": "F3.83.9 (antibody, human IgG1, V domains shown, human-murine chimeric antibody, human IgG1) VH: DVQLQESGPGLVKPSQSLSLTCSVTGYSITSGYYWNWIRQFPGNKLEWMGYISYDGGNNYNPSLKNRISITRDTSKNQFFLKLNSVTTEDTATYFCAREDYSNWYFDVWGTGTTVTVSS VL: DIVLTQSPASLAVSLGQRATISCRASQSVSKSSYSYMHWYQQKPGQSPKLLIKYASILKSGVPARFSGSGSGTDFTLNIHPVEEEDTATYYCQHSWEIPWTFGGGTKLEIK",
    "OD450": 0.05
  },
  {
    "Binder": "F3.81.2 (antibody, human IgG1, V domains shown, human-murine chimeric antibody, human IgG1) VH: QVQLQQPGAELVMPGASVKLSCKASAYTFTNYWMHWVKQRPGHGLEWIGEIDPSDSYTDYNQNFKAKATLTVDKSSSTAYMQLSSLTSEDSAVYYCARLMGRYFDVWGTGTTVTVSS VL: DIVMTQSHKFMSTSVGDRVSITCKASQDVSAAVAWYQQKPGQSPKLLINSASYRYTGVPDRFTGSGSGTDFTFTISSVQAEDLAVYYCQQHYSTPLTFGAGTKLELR",
    "OD450": 0.05
  }
]
